Where these numbers come from: patent US20060121042A1

# target entity: T1, r murine EphA7 (mouse, UniProt Q61772)
# T1 construct: recombinant Fc fusion (R&D Systems); also called rmuEphA7-Fc; mEphA7
# T1 sequence (receptor-Fc fusion, looked up): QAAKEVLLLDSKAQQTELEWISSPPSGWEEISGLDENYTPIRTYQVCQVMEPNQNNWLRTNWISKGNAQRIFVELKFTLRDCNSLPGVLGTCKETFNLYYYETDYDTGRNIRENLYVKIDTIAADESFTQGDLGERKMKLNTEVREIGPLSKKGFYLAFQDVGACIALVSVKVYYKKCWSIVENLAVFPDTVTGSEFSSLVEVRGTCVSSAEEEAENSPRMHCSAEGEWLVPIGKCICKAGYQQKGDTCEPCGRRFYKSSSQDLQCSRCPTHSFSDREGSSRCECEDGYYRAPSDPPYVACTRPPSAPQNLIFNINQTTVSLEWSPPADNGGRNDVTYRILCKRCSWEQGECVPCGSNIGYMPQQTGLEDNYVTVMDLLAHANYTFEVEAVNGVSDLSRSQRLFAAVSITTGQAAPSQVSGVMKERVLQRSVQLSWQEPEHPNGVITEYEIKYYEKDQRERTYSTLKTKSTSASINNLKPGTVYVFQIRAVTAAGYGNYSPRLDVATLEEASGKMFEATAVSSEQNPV
# measurement notes: activity ELISA, IgG on coated antigen
property name: binding result

[[record]]
binder = "6B7 IgG1 (affinity optimized combinatorial variant of mAb GEA44 in human IgG1 format) (antibody, V domains shown) VH: QVQLLQSGAEVKKPGASVKVPCKASGYTFTSRAMSWVRQAPGQGLEWMGWINTNTGNPTYAQGFTGRFVFSLDTSVSTAYLQISSLKAEDTAVYYCARVRFTVYGDGMDVWGQGTLVTVSS VL: EIVLTQSPATLSVSPGERATLSCRASQSVSSNPAWYQQKPGQAPRLLIYGASTRATGIPDRFSASGSGTDFTLTISRVEPEDFAVYYCQQYGPSWTFGQGTKVEIK"
property_name = "binding result"
reading = "binds"

[[record]]
binder = "3A12 IgG1 (affinity optimized combinatorial variant of mAb GEA44 in human IgG1 format) (antibody, V domains shown) VH: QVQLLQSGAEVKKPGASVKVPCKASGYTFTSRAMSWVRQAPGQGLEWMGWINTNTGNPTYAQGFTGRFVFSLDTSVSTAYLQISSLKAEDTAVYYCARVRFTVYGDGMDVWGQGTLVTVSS VL: EIVLTQSPATLSVSPGERATLSCRASQSVSSNLAWYQQKPGQAPRLLIYGASTWATGIPDRFSASGSGTDFTLTISRVEPEDFAVYYCQQYGPSWTFGQGTKVEIK"
property_name = "binding result"
reading = "binds"

[[record]]
binder = "1G11 IgG1 (affinity optimized combinatorial variant of mAb GEA44 in human IgG1 format) (antibody, V domains shown) VH: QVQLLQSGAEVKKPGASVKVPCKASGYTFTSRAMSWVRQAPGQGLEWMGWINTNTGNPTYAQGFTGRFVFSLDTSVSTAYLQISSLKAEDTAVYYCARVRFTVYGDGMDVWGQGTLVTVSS VL: EIVLTQSPATLSVSPGERATLSCRASQSVSSNLPWYQQKPGQAPRLLIYGASTRPTGIPDRFSASGSGTDFTLTISRVEPEDFAVYYCQQYGPSWTFGQGTKVEIK"
property_name = "binding result"
reading = "binds"

